# assay.name: S6 kinase pathway phospho-S6 level changes – cell-based, A549, cytoblot, luminescence, serum-stimulated, primary screen (AID 1158);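 also: serum-stimulated A549 lung adenocarcinoma cells; signal is phosphorylated S6 detected by cytoblot immunostaining with HRP secondary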
# measurement.conditions: 5 h, higher = more signal
Consider the reported z-score of an entry and match it to a band in low range (below -0.2), mid range (-0.2 to below 0.2), high range (0.2 or more)

compound	qualitative.label
[N-]=[N+]=Nc1ccccc1C[C@]1(C(=O)NCCN2CCOCC2)COC(c2ccc(OCCCO)cc2)=N1	mid range
CCCCC(=C=CC[C@H](O)c1ccc(OCCO)cc1)CCO	low range
C=CC[C@H](OC(=O)Nc1ccc(SC)cc1)c1ccc(O)c2ccccc12	high range
COc1cc(C(O)C2C=CC3C(=O)N(C)C(=O)C3N2Nc2ccccc2)cc(OC)c1OC (stereo not drawn)	low range
COCCOC(=O)N1C(=O)[C@@]2(c3cc(C#CC4(O)CCCCCC4)ccc31)[C@H](c1ccc(O)cc1)N1[C@H](c3ccccc3)[C@H](c3ccccc3)OC(=O)[C@H]1[C@@H]2C(=O)N1CCN(c2ncccn2)CC1	mid range
CCCCCC1=C2CNC(C)(C(=O)OC)C=C2C(C)C1=O (stereo not drawn)	low range
CCCCCCc1nc(Cc2cc(OC)c(OC)c(OC)c2)cc2c1[Si](C(C)C)(C(C)C)OC2	high range
COc1cc(OC)c(C(O)C2C=CC3C(=O)N(Cc4ccccc4)C(=O)C3N2n2cnnc2)cc1Br (stereo not drawn)	high range
O=C1C2C=CC(C(O)c3cccc(O)c3)N(Nc3ccc([N+](=O)[O-])cc3)C2C(=O)N1c1ccccc1 (stereo not drawn)	low range
C=C(COC)/C(=C/C[C@H](OC(=O)c1ccncc1)c1ccccc1OCCO)c1cc(C(=O)OC)ccc1OC	mid range

* * *

# System: Plasmodium falciparum Sir2 (PF13_0152, Sir2A)
# assay.name: Plasmodium falciparum Sir2A binding compounds – biochemical, small-molecule microarray, 635 nm fluorescence, primary screen (AID 1098);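 also: score merges spot fluorescence intensity with its signal-to-noise ratio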
# measurement.conditions: fluorescence 635 nm, higher = more signal
endpoint: composite z-score

molecule	endpoint	meas.value
CCCCN1CC=CC23O[C@@H]4/C=C\CCCOC(=O)C4[C@H]2C(=O)N(CCO)[C@@H]3C1=O (stereo partly drawn)	composite z-score	1.77
C=CCNC(=O)[C@@H]1[C@H]2C(=O)O[C@H](c3ccccc3)[C@H](c3ccccc3)N2[C@H](c2ccc(OCCO)cc2)[C@@]12C(=O)N(C(=O)OCCOC)c1ccc(C#Cc3ccc(OC)cc3)cc12	composite z-score	1.29
COC(=O)[C@]1(CCS(=O)(=O)c2ccccc2)N=C(c2ccc(OCCCO)cc2)O[C@@H]1c1ccccc1N=[N+]=[N-]	composite z-score	1.62

* * *

# tgt: Dihydroorotate dehydrogenase (quinone), mitochondrial (Plasmodium falciparum (isolate 3D7))
# assay.name: inhibition of P. falciparum DHODH – biochemical, C-terminal His tag, absorbance 600 nm, primary screen (AID 1175);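 also: recombinant parasite enzyme with a five histidine tag at its C terminus; test concentration not given here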
# measurement.conditions: PfDHODH enzyme, DCIP absorbance 600 nm; higher = more signal, called active from +8 up or from −8 down
Lab note: anything with composite z-score at or over -0.3 counts as met; the rest go in not met.

molecule	qualitative.label
C=CC[C@]1(C(=O)N2CCCCC2)N=C(c2ccc(OCCCO)cc2)O[C@H]1c1ccccc1CN=[N+]=[N-]	not met
COC(=O)[C@@H]1N=C(c2ccc(OCCCO)cc2)O[C@@H]1c1ccccc1	met
CCCC[C@@H]1C[C@H]1[C@@H](NC(=O)c1cccs1)c1ccccc1C(F)(F)F	met
CCCC=C(CCC)[C@@H](NS(=O)(=O)c1ccc(C(F)(F)F)cc1)c1ccccc1	met
CC1CC/C=C\[C@H]2OC34C=CCN(Cc5ccccc5)C(=O)[C@H]3N(C(CO)C(C)C)C(=O)[C@@H]4C2C(=O)O1 (stereo not given in full)	not met
